Origin of the recorded values: ChEMBL document CHEMBL4837250

target-desc: CYP3A4 (Homo sapiens, UniProt P08684)
Sequence (P08684 whole entry): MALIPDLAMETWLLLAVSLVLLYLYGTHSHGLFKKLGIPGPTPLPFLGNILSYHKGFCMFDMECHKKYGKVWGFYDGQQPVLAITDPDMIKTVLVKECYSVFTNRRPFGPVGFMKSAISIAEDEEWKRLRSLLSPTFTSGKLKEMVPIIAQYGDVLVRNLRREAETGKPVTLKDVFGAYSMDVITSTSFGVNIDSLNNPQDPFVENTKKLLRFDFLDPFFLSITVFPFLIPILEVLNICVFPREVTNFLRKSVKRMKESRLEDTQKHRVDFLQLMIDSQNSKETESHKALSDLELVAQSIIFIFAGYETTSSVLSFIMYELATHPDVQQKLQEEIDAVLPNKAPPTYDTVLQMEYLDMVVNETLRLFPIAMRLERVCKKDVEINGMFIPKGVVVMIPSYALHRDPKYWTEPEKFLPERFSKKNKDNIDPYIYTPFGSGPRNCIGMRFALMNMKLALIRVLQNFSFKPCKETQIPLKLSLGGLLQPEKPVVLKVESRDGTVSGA
test-name: in vitro
experimental-conditions: probe testosterone
Description: Inhibition of CYP3A4 (unknown origin) assessed as oxidation of testosterone at 10 uM
measure: inhibition at 10 µM (%)

Observe how each entry below is paired with its result.
COc1ccccc1/C(C)=C/c1ccc2c(c1)N(S(=O)(=O)c1cccc(C(F)(F)F)c1)C[C@H](CCC(=O)O)O2 | 19
O=C(O)C1(C[C@H]2CN(S(=O)(=O)c3cccc(C(F)(F)F)c3)c3cc(-c4cc(F)ccc4F)ccc3O2)CCOCC1 | 5
O=C(O)CC[C@H]1CN(S(=O)(=O)c2cccc(C(F)(F)F)c2)c2cc(-c3cccc(OC(F)F)c3)ccc2O1 | 19
C[C@@H](C[C@H]1CN(S(=O)(=O)c2cccc(C(F)(F)F)c2)c2cc(-c3cc(F)ccc3F)ccc2O1)C(=O)O | 17
C[C@H](C[C@H]1CN(S(=O)(=O)c2cccc(C(F)(F)F)c2)c2cc(-c3cc(F)ccc3F)ccc2O1)C(=O)O | 18

A: C/C(=C\c1ccc2c(c1)N(S(=O)(=O)c1cccc(C(F)(F)F)c1)C[C@H](CCC(=O)O)O2)c1ccccc1C(F)(F)F
B: C/C(=C\c1ccc2c(c1)N(S(=O)(=O)c1cccc(OC(F)F)c1)C[C@H](CCC(=O)O)O2)c1c(F)cccc1Cl
Which entry shows the lesser value of inhibition at 10 µM here, A or B ? Reply briefly: the label of your chosen item. B

a: COc1cccc(-c2ccc3c(c2)N(S(=O)(=O)c2cccc(C(F)(F)F)c2)C[C@H](CCC(=O)O)O3)c1
b: COc1cc(S(=O)(=O)N2C[C@H](CCC(=O)O)Oc3ccc(/C=C(\C)c4c(F)cccc4Cl)cc32)ccc1F
Which entry shows the lesser value of inhibition at 10 µM here, a or b ? Reply briefly: the label of your chosen item. b
(b: -0.5%, a: 19%)

---

target-desc: UniProtKB P35398
Sequence (P35398 whole entry): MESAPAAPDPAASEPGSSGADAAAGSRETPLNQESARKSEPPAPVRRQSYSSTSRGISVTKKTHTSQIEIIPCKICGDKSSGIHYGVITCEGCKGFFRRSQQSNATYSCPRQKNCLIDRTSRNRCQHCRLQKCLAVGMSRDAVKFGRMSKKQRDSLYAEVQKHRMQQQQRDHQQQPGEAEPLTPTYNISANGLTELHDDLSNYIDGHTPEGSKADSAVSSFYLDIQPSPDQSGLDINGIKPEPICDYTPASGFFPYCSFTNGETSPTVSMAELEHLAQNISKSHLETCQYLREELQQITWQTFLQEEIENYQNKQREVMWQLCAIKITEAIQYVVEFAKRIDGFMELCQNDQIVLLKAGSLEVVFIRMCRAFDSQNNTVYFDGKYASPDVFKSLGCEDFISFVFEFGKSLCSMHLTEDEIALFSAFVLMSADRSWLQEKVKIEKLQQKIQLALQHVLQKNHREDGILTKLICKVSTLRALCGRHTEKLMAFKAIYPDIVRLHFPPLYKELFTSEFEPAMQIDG
pEC50: −log10 of the molar value.
measure: pEC50

State the measured pEC50 (UniProtKB P35398) of CC(C)(C[C@H]1CN(S(=O)(=O)c2cccc(C(F)(F)F)c2)c2cc(-c3cc(F)cc(OC(F)F)c3)ccc2O1)C(=O)O [CINTIRORGON] < 5.00

---

test-name: in vivo
experimental-conditions: CD1, mouse, plasma, po, 10 mg/kg
measure: CL/F (mL/min/kg)

Observe how each entry below is paired with its result.
O=C(O)CC[C@H]1CN(S(=O)(=O)c2cccc(C(F)(F)F)c2)c2cc(-c3cccc(F)c3Cl)ccc2O1 | 8.1
CC(C)(C[C@H]1CN(S(=O)(=O)c2cccc(C(F)(F)F)c2)c2cc(-c3cc(F)ccc3F)ccc2O1)C(=O)O | 13.2

A: O=C(O)CC[C@H]1CN(S(=O)(=O)c2cccc(C(F)(F)F)c2)c2cc(/C=C/c3c(Cl)cccc3C(F)(F)F)ccc2O1
B: O=C(O)CC[C@H]1CN(S(=O)(=O)c2cccc(C(F)(F)F)c2)c2cc(-c3ccccc3Cl)ccc2O1
Choose between A and B : whose measured CL/F value is numerically larger? Reply briefly: the label of your chosen item. B

A: CCOc1nn2c(c1S(=O)(=O)N1C[C@H](CCC(=O)O)Oc3ccc(/C=C(\C)c4c(F)cccc4Cl)cc31)CCCC2
B: O=C(O)C1(C[C@H]2CN(S(=O)(=O)c3cccc(C(F)(F)F)c3)c3cc(-c4cc(F)cc(OC(F)F)c4)ccc3O2)COC1
Which entry shows the lesser value of CL/F here, A or B ? Reply briefly: the label of your chosen item. A
(A: 7.8 mL/min/kg, B: 70.2 mL/min/kg)

---

target-desc: Nuclear receptor ROR-gamma (Homo sapiens, UniProt P51449)
Sequence (P51449 whole entry): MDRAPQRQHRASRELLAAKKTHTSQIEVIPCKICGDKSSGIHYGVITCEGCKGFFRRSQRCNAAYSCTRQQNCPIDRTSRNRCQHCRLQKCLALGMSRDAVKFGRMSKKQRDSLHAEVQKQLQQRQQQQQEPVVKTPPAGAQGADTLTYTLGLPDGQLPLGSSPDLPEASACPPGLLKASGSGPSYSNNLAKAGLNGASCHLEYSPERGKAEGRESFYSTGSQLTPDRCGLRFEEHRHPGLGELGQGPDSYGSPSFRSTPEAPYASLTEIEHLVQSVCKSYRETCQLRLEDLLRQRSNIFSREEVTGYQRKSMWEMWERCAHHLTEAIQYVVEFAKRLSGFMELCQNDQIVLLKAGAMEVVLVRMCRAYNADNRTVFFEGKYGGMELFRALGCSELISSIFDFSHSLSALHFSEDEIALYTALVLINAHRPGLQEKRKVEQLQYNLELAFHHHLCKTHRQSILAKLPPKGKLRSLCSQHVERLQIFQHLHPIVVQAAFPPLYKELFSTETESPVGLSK
pEC50: −log10 of the molar value.
measure: pEC50

O=C(O)C1(C[C@H]2CN(S(=O)(=O)c3cccc(C(F)(F)F)c3)c3cc(-c4cccc(Cl)c4F)ccc3O2)CCOCC1 | 6.99
O=C(O)CC[C@H]1CN(S(=O)(=O)c2cccc(C(F)(F)F)c2)c2cc(-c3cccc(F)c3Cl)ccc2O1 | 6.84

---

test-name: in vivo
experimental-conditions: CD1, mouse, po, 10 mg/kg
measure: AUC(0-inf) (ng·h/mL)

Observe how each entry below is paired with its result.
O=C(O)C1(C[C@H]2CN(S(=O)(=O)c3cccc(C(F)(F)F)c3)c3cc(-c4cc(F)cc(OC(F)F)c4)ccc3O2)COC1 | 1400
CC(C)(C[C@H]1CN(S(=O)(=O)c2cccc(C(F)(F)F)c2)c2cc(-c3cc(F)cc(OC(F)F)c3)ccc2O1)C(=O)O [CINTIRORGON] | 3240
CCOc1nn2c(c1S(=O)(=O)N1C[C@H](CCC(=O)O)Oc3ccc(/C=C(\C)c4c(F)cccc4Cl)cc31)CCCC2 | 35600

P: O=C(O)CC[C@H]1CN(S(=O)(=O)c2cccc(C(F)(F)F)c2)c2cc(/C=C/c3c(Cl)cccc3C(F)(F)F)ccc2O1
Q: O=C(O)CC[C@H]1CN(S(=O)(=O)c2cccc(C(F)(F)F)c2)c2cc(-c3cccc(F)c3Cl)ccc2O1
Which entry shows the lesser value of AUC(0-inf) here, P or Q ? Reply briefly: the label of your chosen item. Q

---

test-name: in vivo
experimental-conditions: Sprague-Dawley, rat, iv, 1 mg/kg
Description: Volume of distribution in Sprague-Dawley rat at 1 mg/kg, iv
measure: Vd (L/kg)
All answers are understood in L/kg, so give the number only.

For the compound "CC(C)(C[C@H]1CN(S(=O)(=O)c2cccc(C(F)(F)F)c2)c2cc(-c3cc(F)cc(OC(F)F)c3)ccc2O1)C(=O)O" , give its reported Vd. 5.7

---

Consider molecules characterized by their EC50 with Nuclear receptor subfamily 1 group I member 2 (Homo sapiens, UniProt O75469).
Sequence (O75469 whole entry): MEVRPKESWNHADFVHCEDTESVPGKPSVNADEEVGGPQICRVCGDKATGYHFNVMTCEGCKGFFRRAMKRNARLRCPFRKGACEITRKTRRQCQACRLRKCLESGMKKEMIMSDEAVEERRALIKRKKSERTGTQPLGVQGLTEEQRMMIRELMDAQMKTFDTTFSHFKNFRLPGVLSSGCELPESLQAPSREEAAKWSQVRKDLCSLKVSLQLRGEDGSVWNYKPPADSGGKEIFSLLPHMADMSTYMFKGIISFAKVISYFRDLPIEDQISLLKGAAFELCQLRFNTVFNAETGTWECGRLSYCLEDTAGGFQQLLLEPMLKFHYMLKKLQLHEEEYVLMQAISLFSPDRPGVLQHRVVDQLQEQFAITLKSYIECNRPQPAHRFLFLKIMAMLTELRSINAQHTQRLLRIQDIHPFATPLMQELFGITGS

Observe how each entry below is paired with its result.
O=C(O)CC[C@H]1CN(S(=O)(=O)c2cccc(C(F)(F)F)c2)c2cc(/C=C/c3c(F)cccc3Cl)ccc2O1 | > 10 µM
O=C(O)CC[C@H]1CN(S(=O)(=O)c2cccc(C(F)(F)F)c2)c2cc(-c3cc(F)cc(OC(F)F)c3)ccc2O1 | > 10 µM
O=C(O)CC[C@H]1CN(S(=O)(=O)c2cccc(C(F)(F)F)c2)c2cc(-c3cc(F)cc(F)c3)ccc2O1 | > 10 µM
O=C(O)C1(C[C@H]2CN(S(=O)(=O)c3cccc(C(F)(F)F)c3)c3cc(-c4cc(F)ccc4F)ccc3O2)CCOCC1 | > 10 µM
O=C(O)C1(C[C@H]2CN(S(=O)(=O)c3cccc(C(F)(F)F)c3)c3cc(-c4cc(F)ccc4F)ccc3O2)COC1 | 18 µM
O=C(O)CC[C@H]1CN(S(=O)(=O)c2cccc(C(F)(F)F)c2)c2cc(-c3cc(F)ccc3F)ccc2O1 | > 10 µM

Query molecule follows.
State the measured EC50 (Nuclear receptor subfamily 1 group I member 2 (Homo sapiens, UniProt O75469)) of "CCOc1nn2c(c1S(=O)(=O)N1C[C@H](CCC(=O)O)Oc3ccc(/C=C(\C)c4c(F)cccc4Cl)cc31)CCCC2" > 10 µM

---

test-name: in vivo
experimental-conditions: CD1, mouse, po, 10 mg/kg
Description: Half life in CD1 mouse at 10 mg/kg, po
measure: half-life (h)

I: O=C(O)CC[C@H]1CN(S(=O)(=O)c2cccc(C(F)(F)F)c2)c2cc(/C=C/c3c(Cl)cccc3C(F)(F)F)ccc2O1
II: CC(C)(C[C@H]1CN(S(=O)(=O)c2cccc(C(F)(F)F)c2)c2cc(-c3cc(F)ccc3F)ccc2O1)C(=O)O
Choose between I and II : whose measured half-life value is numerically larger? Reply briefly: the label of your chosen item. II
(II: 7.35 h, I: 3.69 h)

---

target-desc: CYP2D6 (Homo sapiens)
Sequence (P10635 whole entry): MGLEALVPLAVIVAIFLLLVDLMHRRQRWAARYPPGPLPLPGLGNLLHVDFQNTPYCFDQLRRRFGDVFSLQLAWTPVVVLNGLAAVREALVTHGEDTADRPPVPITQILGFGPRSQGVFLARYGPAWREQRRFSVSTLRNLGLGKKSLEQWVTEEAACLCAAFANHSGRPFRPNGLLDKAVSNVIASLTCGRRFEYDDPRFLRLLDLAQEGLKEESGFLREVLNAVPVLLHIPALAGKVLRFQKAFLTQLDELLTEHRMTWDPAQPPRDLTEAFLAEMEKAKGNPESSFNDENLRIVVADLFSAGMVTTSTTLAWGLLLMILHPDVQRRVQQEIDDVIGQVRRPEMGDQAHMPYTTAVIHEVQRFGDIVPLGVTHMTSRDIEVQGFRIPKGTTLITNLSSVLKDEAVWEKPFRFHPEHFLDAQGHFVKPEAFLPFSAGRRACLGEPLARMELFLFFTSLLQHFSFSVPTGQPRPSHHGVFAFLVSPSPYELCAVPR
test-name: in vitro
experimental-conditions: probe testosterone
Description: Inhibition of CYP2D6 (unknown origin) assessed as oxidation of testosterone at 10 uM
measure: inhibition at 10 µM (%)

Observe how each entry below is paired with its result.
C/C(=C\c1ccc2c(c1)N(S(=O)(=O)c1cccc(C(F)(F)F)c1)C[C@H](CCC(=O)O)O2)c1ccccc1C | -6
CC(C)(C[C@H]1CN(S(=O)(=O)c2cccc(C(F)(F)F)c2)c2cc(-c3cc(F)cc(OC(F)F)c3)ccc2O1)C(=O)O | 6
O=C(O)CC[C@H]1CN(S(=O)(=O)c2cccc(C(F)(F)F)c2)c2cc(-c3cccc(OC(F)F)c3)ccc2O1 | 7
O=C(O)CC[C@H]1CN(S(=O)(=O)c2cccc(C(F)(F)F)c2)c2cc(-c3cc(F)ccc3Cl)ccc2O1 | 6
CC(C)(C[C@H]1CN(S(=O)(=O)c2cccc(C(F)(F)F)c2)c2cc(-c3cc(F)ccc3F)ccc2O1)C(=O)O | 6

a: O=C(O)CC[C@H]1CN(S(=O)(=O)c2cccc(C(F)(F)F)c2)c2cc(/C=C/c3c(F)cccc3Cl)ccc2O1
b: O=C(O)CC[C@H]1CN(S(=O)(=O)c2cccc(C(F)(F)F)c2)c2cc(-c3ccccc3Cl)ccc2O1
Which entry shows the lesser value of inhibition at 10 µM here, a or b ? Reply briefly: the label of your chosen item. a
(a: -5.6%, b: 0%)

---

test-name: in vitro
experimental-conditions: human, hepatocytes
measure: hepatocyte CLint (µL/min/1e6 cells)

Observe how each entry below is paired with its result.
O=C(O)C1(C[C@H]2CN(S(=O)(=O)c3cccc(C(F)(F)F)c3)c3cc(-c4cc(F)cc(OC(F)F)c4)ccc3O2)COC1 | 17
CC(C)c1ccc(-c2ccc3c(c2)N(S(=O)(=O)c2cccc(C(F)(F)F)c2)C[C@H](CCC(=O)O)O3)cc1 | 31
O=C(O)[C@@H](O)CC[C@H]1CN(S(=O)(=O)c2cccc(C(F)(F)F)c2)c2cc(-c3cc(F)ccc3F)ccc2O1 | 18

1: O=C(O)C1(C[C@H]2CN(S(=O)(=O)c3cccc(C(F)(F)F)c3)c3cc(-c4cc(F)cc(OC(F)F)c4)ccc3O2)CCOCC1
2: COc1cccc(-c2ccc3c(c2)N(S(=O)(=O)c2cccc(C(F)(F)F)c2)C[C@H](CCC(=O)O)O3)c1
3: O=C(O)CC[C@H]1CN(S(=O)(=O)c2cccc(C(F)(F)F)c2)c2cc(/C=C/c3c(Cl)cccc3C(F)(F)F)ccc2O1
hey, can you rank those compounds up there by hepatocyte CLint? biggest number first please Labels, ranked as asked. 2, 3, 1
(2: 44 µL/min/1e6 cells, 3: 20 µL/min/1e6 cells, 1: 9 µL/min/1e6 cells)
